# Target System: Platelet-derived growth factor receptor beta (Homo sapiens) (UniProt P09619)
# Sequence (P09619 whole entry): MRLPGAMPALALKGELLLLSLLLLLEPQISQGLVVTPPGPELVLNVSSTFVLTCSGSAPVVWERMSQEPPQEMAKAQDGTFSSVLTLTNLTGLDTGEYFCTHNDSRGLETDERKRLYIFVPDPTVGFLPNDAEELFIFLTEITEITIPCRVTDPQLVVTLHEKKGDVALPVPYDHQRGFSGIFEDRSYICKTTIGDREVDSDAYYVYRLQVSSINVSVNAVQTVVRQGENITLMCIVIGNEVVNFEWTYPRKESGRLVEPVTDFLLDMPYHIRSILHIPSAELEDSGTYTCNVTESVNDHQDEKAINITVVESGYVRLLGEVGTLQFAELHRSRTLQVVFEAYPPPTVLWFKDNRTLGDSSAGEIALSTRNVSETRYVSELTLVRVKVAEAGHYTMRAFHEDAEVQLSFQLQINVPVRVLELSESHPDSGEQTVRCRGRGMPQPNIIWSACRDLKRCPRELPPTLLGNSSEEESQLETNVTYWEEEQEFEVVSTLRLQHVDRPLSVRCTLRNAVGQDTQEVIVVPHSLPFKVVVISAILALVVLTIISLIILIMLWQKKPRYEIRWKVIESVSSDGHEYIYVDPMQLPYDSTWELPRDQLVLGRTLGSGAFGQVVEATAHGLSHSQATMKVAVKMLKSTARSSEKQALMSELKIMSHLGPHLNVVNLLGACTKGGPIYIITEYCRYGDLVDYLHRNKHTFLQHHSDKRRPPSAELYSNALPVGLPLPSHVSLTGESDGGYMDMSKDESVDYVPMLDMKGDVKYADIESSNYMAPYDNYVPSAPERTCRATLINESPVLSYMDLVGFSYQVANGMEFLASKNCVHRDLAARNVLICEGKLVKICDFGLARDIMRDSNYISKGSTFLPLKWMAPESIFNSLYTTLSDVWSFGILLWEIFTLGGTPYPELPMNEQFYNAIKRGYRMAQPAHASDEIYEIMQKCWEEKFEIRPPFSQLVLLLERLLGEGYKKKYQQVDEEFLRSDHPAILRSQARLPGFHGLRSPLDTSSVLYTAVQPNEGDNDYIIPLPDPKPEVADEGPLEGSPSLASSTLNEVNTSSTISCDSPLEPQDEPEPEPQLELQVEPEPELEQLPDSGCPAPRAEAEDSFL
# Condition Label: at 10 µM
Recorded Endpoint: residual activity

>>> observed_result("N/C(=N\\[N+](=O)[O-])N/N=C\\c1ccc(-c2cccc([N+](=O)[O-])c2)o1")
"60%"
>>> observed_result("O=[N+]([O-])/C=C/c1ccc2c(c1)OCO2")
"97%"
>>> observed_result("C[S+]([O-])c1ccc(-c2nc(-c3ccc(F)cc3)c(-c3ccncc3)[nH]2)cc1 (configuration not stated)")
"120%"
>>> observed_result("CC(C)(C)c1cc(C=C(C#N)C#N)cc(Br)c1O")
"103%"
>>> observed_result("CCn1cnc2c(Nc3cccc(Cl)c3)nc(N[C@@H]3CCCC[C@@H]3N)nc21")
"76%"
>>> observed_result("O=c1[nH]c2ccccc2n1C1CCN(Cc2ccc(-c3nc4cc5[nH]cnc5cc4nc3-c3ccccc3)cc2)CC1")
"96%"
>>> observed_result("CCc1nc(-c2ccc(OC)cc2)[nH]c1-c1ccncc1")
"108%"
